Hello, the source for this data is paper PMC11626197, in case you need it.

# subjectOfTest: chymotrypsin (Bos taurus)
# assayExplanation: Chymotrypsin inhibition assay
# Type: biochemical
Numbered stars: 1 amine (or outer) side, 2 acyl side, 3 side chain; on linkers, the order of the positions; unused ones are H or OH. Bridge positions count the residues as written; N and C are the ends. Square brackets hold non-standard residues; d marks the D form. Ends that are not written are not given here. X1 = CSCCC(N[*:1])C(=O)C(=O)[*:2]
assayMetric: IC50 (µM)

substance | unitsLabel | testResult
GTVTGSILTPIDYGCFNPFLCSVA[X1]GGVIDPIRFPNAWREL (disulfide 15-21) [Compound 3, G-RcsA*-Tyn] | µM | 9.2
